In this section, each of the molecules is paired with its reported Emax.
# target: μ-opioid receptors (Homo sapiens (Human))
# assay-comment: μ-opioid receptor [35S]GTPγS functional assay, U-2 OS cells
# Type: biochemical
# study-conditions: μ GTP, relative to DAMGO, read-out: Activity Response μ Emax (%)
Form entry: value (%) — number only.

CCCC[C@H]1C[C@@]2(O)[C@H]3Cc4ccc(O)cc4[C@@]2(CCN3CC2CC2)CC1=O [Compound 67]    2
O=C1C[C@]23CCN(CC4CC4)[C@H](Cc4ccc(OCc5ccccc5)cc42)[C@]3(O)C[C@@H]1CCO [Compound 58]    43.7
O=C1C[C@]23CCN(CC4CC4)[C@H](Cc4ccc(O)cc42)[C@]3(O)C[C@@H]1CC1CCCCC1 [Compound 70]    3.5
CC(=O)N[C@H]1C[C@@]2(O)[C@H]3Cc4ccc(O)cc4[C@@]2(CCN3CC2CC2)CC1=O [Compound 28]    2.5
CC(C)CC[C@H]1C[C@@]2(O)[C@H]3Cc4ccc(O)cc4[C@@]2(CCN3CC2CC2)CC1=O [Compound 64]    7.5
O=C1C[C@]23CCN(CC4CC4)[C@H](Cc4ccc(O)cc42)[C@]3(O)C[C@@H]1CCO [Compound 54]    26.3
COc1ccc2c(c1)[C@]13CCN(CC4CC4)[C@H](C2)[C@]1(O)C[C@H](O)C(=O)C3 [Compound 25]    36
CC(C)[C@H]1C[C@H]2[C@H]3Cc4ccc(O)cc4[C@@]2(CCN3CC2CC2)CC1=O [Compound 74]    46

Let us examine a further case.
Consider the molecule CC(C)CC(=O)N[C@H]1C[C@@]2(O)[C@H]3Cc4ccc(O)cc4[C@@]2(CCN3CC2CC2)CC1=O [Compound 33] and give its measured Emax. 2.5

Provenance of the data: patent US9388162B2
